test system: A549/ATCC NSCLC; assay: NCI-60 one-dose screen, 48 h; details: 10 µM unless noted
Compounds without any hit were thinned out: in the full panel of roughly 83,000, 20% have a hit. Calls of active or inactive are those of the source. How the source made its calls: active means growth percent below 10; inactive means the rest.
// one of T (active), F (inactive), no free text

# example entries with known answers
COc1cc(C2(C#N)CCN(C)CC2)cc(OC)c1OC = F
COc1cc2c(cc1OC)CN(C)C(C)C2 (centres undefined) = F
CC[C@@]1(C2O[C@@H](C3O[C@@](O)(CC)[C@H](C)C[C@@H]3C)C[C@@H]2C)CC[C@H]([C@]2(C)CCC3(C[C@H](O)[C@@H](C)[C@@H]([C@H](C)[C@@H](OC)[C@H](C)C(=O)O)O3)O2)O1 (some centres undefined) = F
c1ccc2nc(OCCN3CC3)ccc2c1 = F
ClCCN(CCCl)C(c1ccccc1)c1ccc(Cl)cc1 (centres undefined) = F

Just curious, what result did `Cc1ccccc1O` get here?
F

Check the results log: what was the call for COc1ccc(C(=O)c2ccc([As]=O)cc2)cc1 (centres undefined) ?
T

Call for entry `Nc1cccc2c1Oc1ccccc1O2` :
F

* * *

tested on: HL-60(TB) leukemia; experiment: NCI-60 one-dose screen, 48 h; details: 10 µM unless noted
This is part of a sample that, as a whole, favours compounds with a hit. Of some 83,000 tested, about 20% had one in any assay. Active and inactive are the calls of the source. Rule for the calls: active = growth percent below 10; inactive = the rest.
Hello, when you answer, please use one of the following outcomes: active, inactive

COc1ccc(N=Nc2nccs2)c(O)c1 = active
CCCCN(CCCC)CCCN=c1nc2c(c(N)n1-c1ccccc1)c(=S)n(-c1ccccc1)c(=S)n2-c1ccccc1 = active
Cc1c([C@H](C(Cl)Cl)[C@H](O)[C@H]2C[C@H](C)C(=O)O2)ccc2c1C(=O)[C@H]1[C@H]2C[C@@H](Br)[C@@]23O[C@@H](CO[C@H]2O)CC13C (stereo partly drawn) = active
COc1cc(C2=N/C(=C\c3cc4ccccc4nc3Oc3ccccc3)C(=O)N2C(=N)N)cc(OC)c1OC = inactive
COc1ccc(CNC(=O)c2c(C)n([O-])c3ccccc3[n+]2=O)cc1 = inactive

// outcome(item) with item = `COc1ccc(/C=C/C(C)=N/OCC(=O)O)cc1`
inactive

Any idea what this test logged for `Cc1ccc(S(=O)(=O)OC[C@@]2(C)CC[C@]3(C)CC[C@]4(C)C(=CC[C@@H]5[C@@]6(C)CCCNC(C)(C)[C@@H]6CC[C@]54C)[C@@H]3C2)cc1` ?
active

Per the assay record, what outcome was assigned to `C[C@H](CCC[C@H](C)OS(=O)(=O)c1ccccc1)OS(=O)(=O)c1ccccc1` ?
inactive

* * *

System: HL-60(TB) leukemia
Experiment: NCI-60 one-dose screen, 48 h
Conditions: 10 µM unless noted
Experimental: Growth inhibition of the HL-60(TB) human tumor cell line is measured as a screen for anti-cancer activity. Cells are grown in 96 well plates and exposed to the test compound for 48 hours. Compounds are tested at a single concentration, which is 10^-5 M for most compounds. The reported endpoint is percent growth (GI% or GIPRCNT), where numbers from 0 - 100% represent growth inhibition, and numbers from -100% - 0 represent cell death. For example, a value of 40 represents 60% growth inhibition. […]
Compounds without any hit were thinned out: in the full panel of roughly 83,000, 20% have a hit. Calls of active or inactive are those of the source. The calls were made as follows: active = growth percent below 10; inactive = the rest.
Respond using exactly one of the listed classes: active, inactive

Sample answers from the record:
CC(=O)c1ccc2c(c1)CCc1ccccc1-2 = inactive
O=c1oc2ccc(Cl)cc2cc1-c1cs/c(=N/N=C\c2ccc(Cl)cc2)n1/N=C/c1ccc(Cl)cc1 = inactive
CSC(=N\N=C\c1ccc(N(C)C)cc1)/N=C/N(C)C = inactive
CSc1nnc(C2=CC(=O)c3ccccc3C2=O)n1-c1ccccc1 = active
O=C1CC(C(F)(F)F)Cc2nc3ccc(Br)cc3cc21 (stereo not given) = inactive

Call for entry `CCOc1ccc(-n2nc(C(=O)Nc3cc(OC)c(OC)c(OC)c3)nc2-c2cc(OC)c(OC)c(OC)c2)cc1` :
inactive

Lab log entry: `COc1cc(C(=O)/C=C/c2c(Cl)nc3sccn23)cc(OC)c1OC` — outcome as called in the assay?
inactive

Could you kindly confirm the outcome this assay logged for `CN(/C(N)=N/N=C/c1c2ccccc2cc2ccccc12)C1CCCCC1` ?
inactive

What is the recorded call for this compound in the test? `COc1c(-c2cc(-c3ccc(C)o3)[nH]c(=O)n2)c(O)cc2occc12`
inactive

Answer briefly: the call reported for `Cn1c2c(cc(S(=O)(=O)c3ccccc3)c1=O)CCc1c-2cnn1-c1ccc(Cl)cc1` in this assay.
inactive

* * *

system: HL-60(TB) leukemia; test: NCI-60 one-dose screen, 48 h; details: 10 µM unless noted
About 83,000 compounds went through this panel and 20% of them were active in at least one assay; those are over-represented in the sample as a whole. Activity calls are given as the source filed them. Rule for the calls: active = growth percent below 10; inactive = the rest.
Hi there, use one of these labels in your reply, thanks! 1.0 (active), 0.0 (inactive)

O=c1cc(CP(=O)(O)O)c2cc(O)c(-c3ccccc3)cc2o1 = 0.0
O=C(Nc1ccccc1Cl)Oc1ccc2ccccc2c1 = 0.0
CC1(C)c2ccccc2C(=O)C1(Br)Cc1ccccc1 (centres undefined) = 1.0
CCOc1cc2ncc(C#N)c(Nc3ccc(F)c(Cl)c3)c2cc1NC(=O)/C=C/CN(C)C = 1.0
C=CC(=O)N1CCC[C@@H](n2nc(-c3ccc(Oc4ccccc4)cc3)c3c(N)ncnc32)C1 = 0.0
O=C1N=C(c2c(-c3[nH]c(=O)c4ccc(Br)cc4c3O)c(O)c3ccccc3c2O)C(=O)c2cc(Br)ccc21 = 0.0

I'd appreciate the recorded outcome for `COc1cc(/C=C/C(=O)Nc2cccnc2Nc2ccc(F)cc2)cc(OC)c1OC` from this test.
0.0

Lab log entry: `COc1cc(/C=C(/C)C[N+](=O)[O-])ccc1O` — outcome as called in the assay?
0.0

Outcome? `COc1cc2ncnc(Nc3ccc(F)c(Cl)c3)c2cc1NC(=O)/C=C/CN1CCCCC1`
1.0

Lab log entry: `N#Cc1c(NC(=O)c2cccs2)[n+]([O-])c2ccc(F)cc2[n+]1[O-]` — outcome as called in the assay?
0.0

# fetch the recorded call for `CC(=O)Nc1ccc(O)c(C)c1` here
0.0

Tell me the assay call for CC1=CC(=O)OC1C/C=C(\C)CCC1[C@@]2(C)CCC[C@@](C)(C(=O)O)C2CC[C@@]1(C)O (some centres undefined) please.
0.0

* * *

Measured growth values are reported for all entries that follow.
test system: MOLT-4 leukemia; test: NCI-60 one-dose screen, 48 h (100 = growth as untreated, 0 = no growth, -100 = all killed); conditions: 10 µM
About 83,000 compounds went through this panel and 20% of them were active in at least one assay; those are over-represented in the sample as a whole.
Give your result in % as a bare value.

Examples from the recorded data:
Oc1ccc2c3c1O[C@H]1c4[nH]c5ccccc5c4C[C@@]4(O)C(C2)N(CC2CC2)CC[C@]314 = 74.4
C[C@]12C[C@H](O)[C@H]3[C@@H](CCC4=CC(=O)CC[C@@]43C)[C@@H]1CC[C@@H]2O = 103
OC1(c2ccc(Cl)cc2Cl)c2ccccc2C2=NCCN21 (configuration not stated) = 78.9
CNC(=O)O/N=C(/C)c1ccc(Cl)cc1 = 93.9
Nc1cccc2c1Oc1ccccc1O2 = 103
FC(F)=C(F)c1ccccc1 = 92.6
CNc1ccc(C(=O)CC(O)CCC(C)C2OC(=O)CC(O)CC(=O)CC(O)CC(O)CC(O)CC(O)CC3(O)CC(O)C(C(=O)OC)C(CC(O[C@@H]4O[C@H](C)[C@@H](O)[C@H](N)[C@@H]4O)/C=C/C=C/C=C/C=C/C=C/C=C/C=C/C2C)O3)cc1 (some centres not stated) = -13.8
Oc1ccc(Br)cc1CN1CCN(Cc2ccc(Cl)cc2)CC1 = 56.1

# lookup: growth of `O=C1NC(=O)C(Cc2ccccc2)(Cc2ccccc2)C(=O)N1`
100

Fill in the blank: the reported growth of [N-]=[N+]=NC(C(=O)O)c1ccccc1 (configuration not stated) is ____.
87.4

# growth lookup, item `O=c1[nH]c2cc(Cl)ccc2n1C1CCN(CCCC(c2ccc(F)cc2)c2ccc(F)cc2)CC1`
-28.3

Consider the compound `Cc1cc(C)nc(C)c1.[Cl][Hg][Cl]` and give its measured growth.
92

For the compound shown here, COc1ccc(C(=O)c2ccc([As]=O)cc2)cc1 (configuration not stated) , give the reported growth.
-24.5

Which growth reading was recorded for the compound `COc1cc(NCCCCCN=C(N)N)c2ncccc2c1` ?
4.38

Give the measured growth of C=CC(=O)NC(O)C(Cl)(Cl)Cl (configuration not stated) .
83.8

// growth lookup, key: CC(=O)O[C@H]1CCC2(C)C(=CCC3C2CCC2(C)/C(=N/OC(=O)c4ccc(N(CCCl)CCCl)cc4)CCC32)C1 (some centres not stated)
3.85

Look up growth: C=CCN1C(=O)C(CC)(CCC(C)C)C(=O)NC1=S (configuration not stated)
96.6

GET /values?readout=growth&item= `CC(C)CCC1(CCO)C(=O)NC(=S)NC1=O`
113

Consider the compound C1CNC2CCCC2C1 (configuration not stated) and give its measured growth.
116

Need growth, item O=C(O)C1[O][Sb][O]C1C(=O)O (configuration not stated)
94.6

Fill blank: measured growth of the compound `Cc1nnc([S-])s1.[Au+].c1ccc([PH+](c2ccccc2)c2ccccc2)cc1` is ____.
-9.08

What does the record list as growth for `CC(=O)[O][Hg][c]1nc2c(c(=O)n(C)c(=O)n2C)n1C` ?
100
